Data origin, for the record: ChEMBL document CHEMBL1134002

- target.entity: Polyunsaturated fatty acid 5-lipoxygenase (Rattus norvegicus)
- test.summary: In vitro inhibitory concentration against 5-lipoxygenase in RBL-1 cells
- Type: cell-based
pIC50: −log10 of the molar value.

{"smiles.str": "O=C(NN1CCc2cc(O)ccc21)c1ccccc1", "target.entity": "Polyunsaturated fatty acid 5-lipoxygenase (Rattus norvegicus)", "pIC50": 5.46}

---

- target.entity: UniProt:P12527
- Sequence (whole entry): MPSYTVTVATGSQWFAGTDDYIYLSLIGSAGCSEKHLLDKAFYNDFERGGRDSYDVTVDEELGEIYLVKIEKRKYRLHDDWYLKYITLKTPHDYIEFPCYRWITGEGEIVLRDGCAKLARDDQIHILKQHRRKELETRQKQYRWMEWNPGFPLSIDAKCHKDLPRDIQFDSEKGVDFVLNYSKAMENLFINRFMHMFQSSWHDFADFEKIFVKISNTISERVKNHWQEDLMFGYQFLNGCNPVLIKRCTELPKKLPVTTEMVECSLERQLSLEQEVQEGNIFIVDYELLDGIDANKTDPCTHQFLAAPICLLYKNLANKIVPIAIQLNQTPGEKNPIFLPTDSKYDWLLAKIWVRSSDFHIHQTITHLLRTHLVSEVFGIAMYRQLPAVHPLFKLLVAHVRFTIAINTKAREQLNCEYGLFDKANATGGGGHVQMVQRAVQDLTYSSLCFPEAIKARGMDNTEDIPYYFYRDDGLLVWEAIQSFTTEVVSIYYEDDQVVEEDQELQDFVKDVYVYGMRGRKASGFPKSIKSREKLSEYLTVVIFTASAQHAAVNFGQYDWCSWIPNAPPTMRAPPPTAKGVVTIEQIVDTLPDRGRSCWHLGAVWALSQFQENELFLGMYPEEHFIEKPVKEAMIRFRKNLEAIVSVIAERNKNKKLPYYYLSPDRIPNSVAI
- test.summary: In vitro percent inhibition against 5-lipoxygenase in RBL-1 cells at 10 uM concentration
- Format: cell-based
Property: inhibition; scope: individual molecules

{"smiles.str": "O=C(NN1CCc2ccccc21)c1ccccc1", "inhibition, %": 15}
{"smiles.str": "O=C(O)CCC/C=C/c1ccc(C(=O)NN2CCc3ccccc32)cc1", "inhibition, %": 18}
{"smiles.str": "COc1ccc2c(c1)CCN2NC(=O)c1ccccc1", "inhibition, %": 20}
{"smiles.str": "O=C(NN1CCc2cc(O)ccc21)c1ccccc1", "inhibition, %": 80}
{"smiles.str": "CN(NS(=O)(=O)c1ccccc1)c1ccccc1", "inhibition, %": 53}
{"smiles.str": "CN(NC(=O)c1ccccc1)c1ccccc1", "inhibition, %": 28}
